Listing: viability, T/C of selected molecules
System: 282377-053-R-J1-PDC complex spheroid viability
Experiment: Anticancer human tumor 282377-053-R-J1-PDC patient-derived colon adenocarcinoma cell line growth inhibition [POLQ]
Conditions: second compound 3.16 µM; first compound 0.316 µM; active compounds read low
quantity_measured: viability, T/C (%)

| molecule | quantity_measured | measured_value |
| --- | --- | --- |
| CC1COCCN1c1cc(C2(O)CC3CCC(C2)O3)c2cnn(-c3ccn[nH]3)c2n1 (stereo not given) + COC1C(OC(N)=O)C(O)C(Oc2ccc3c(O)c(NC(=O)c4ccc(O)c(CC=C(C)C)c4)c(=O)oc3c2C)OC1(C)C | viability, T/C | 54.8 |
| CCc1cc2c(N3CCc4c(cc(Cn5ccnc5)cc4-c4cn(C)nc4C(F)(F)F)C3=O)ccnc2c(OC)n1 + Nc1ccc(C#CCN(C(=O)Cc2ncc(C(F)(F)F)cc2C(F)(F)F)c2ccc(F)cc2)nn1 | viability, T/C | 88.8 |
| COc1cc(C2c3cc4c(cc3C(OC3OC5COC(C)OC5C(O)C3O)C3COC(=O)C23)OCO4)cc(OC)c1O (stereo not given) + Cc1cccc(N(C)C(=O)C2C(O)CCN2c2nc(C)cc(C(F)(F)F)c2C#N)c1 | viability, T/C | 96.2 |
| O=C(c1cc(Cc2n[nH]c(=O)c3ccccc23)ccc1F)N1CCN(C(=O)C2CC2)CC1 + Cc1cccc(N(C)C(=O)C2C(O)CCN2c2nc(C)cc(C(F)(F)F)c2C#N)c1 | viability, T/C | 104 |
| CC(C)n1c(=O)n(C)c2cnc3cc(F)c(-c4ccc(OCCCN5CCCCC5)nc4)cc3c21 + Nc1ccc(C#CCN(C(=O)Cc2ncc(C(F)(F)F)cc2C(F)(F)F)c2ccc(F)cc2)nn1 | viability, T/C | 103 |
| O=C(c1cc(Cc2n[nH]c(=O)c3ccccc23)ccc1F)N1CCN(C(=O)C2CC2)CC1 + Nc1ccc(C#CCN(C(=O)Cc2ncc(C(F)(F)F)cc2C(F)(F)F)c2ccc(F)cc2)nn1 | viability, T/C | 111 |
| COc1cc2cc(C(=O)CCC(=O)O)sc2cc1OC + Nc1ccc(C#CCN(C(=O)Cc2ncc(C(F)(F)F)cc2C(F)(F)F)c2ccc(F)cc2)nn1 | viability, T/C | 103 |
| C=CC(=O)N1CCN(c2nc(=O)n(-c3c(C)ccnc3C(C)C)c3nc(-c4c(O)cccc4F)c(F)cc23)C(C)C1 (stereo not given) + COC1C(OC(N)=O)C(O)C(Oc2ccc3c(O)c(NC(=O)c4ccc(O)c(CC=C(C)C)c4)c(=O)oc3c2C)OC1(C)C | viability, T/C | 102 |
| CCc1cc2c(N3CCc4c(cc(Cn5ccnc5)cc4-c4cn(C)nc4C(F)(F)F)C3=O)cc(C)nc2c(OC)n1 + Cc1cccc(N(C)C(=O)C2C(O)CCN2c2nc(C)cc(C(F)(F)F)c2C#N)c1 | viability, T/C | 101 |
| CC1COCCN1c1cc(C2(S(C)(=N)=O)CC2)nc(-c2ccnc3[nH]ccc23)n1 (stereo not given) + COC1C(OC(N)=O)C(O)C(Oc2ccc3c(O)c(NC(=O)c4ccc(O)c(CC=C(C)C)c4)c(=O)oc3c2C)OC1(C)C | viability, T/C | 85.3 |

###

Tested on: 282377-053-R-J1-PDC complex spheroid viability
Test: Anticancer human tumor 282377-053-R-J1-PDC cell line growth inhibition [POLQ];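 also: spheroids exposed to compounds for seven days; 100% = DMSO vehicle control viability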
Details: second compound 0.1 µM; first compound 3.16 µM; active compounds read low

| compound | viability, T/C (%) |
| --- | --- |
| O=C(c1cc(Cc2n[nH]c(=O)c3ccccc23)ccc1F)N1CCN(C(=O)C2CC2)CC1 + Nc1ccc(C#CCN(C(=O)Cc2ncc(C(F)(F)F)cc2C(F)(F)F)c2ccc(F)cc2)nn1 | 117 |
| CC1COCCN1c1cc(C2(S(C)(=N)=O)CC2)nc(-c2ccnc3[nH]ccc23)n1 (stereo not given) + COC1C(OC(N)=O)C(O)C(Oc2ccc3c(O)c(NC(=O)c4ccc(O)c(CC=C(C)C)c4)c(=O)oc3c2C)OC1(C)C | 61.9 |
| Nc1ccn(C2OC(CO)C(O)C2(F)F)c(=O)n1 (stereo not given) + Cc1cccc(N(C)C(=O)C2C(O)CCN2c2nc(C)cc(C(F)(F)F)c2C#N)c1 | 23.2 |
| CC1COCCN1c1cc(C2(O)CC3CCC(C2)O3)c2cnn(-c3ccn[nH]3)c2n1 (stereo not given) + Nc1ccc(C#CCN(C(=O)Cc2ncc(C(F)(F)F)cc2C(F)(F)F)c2ccc(F)cc2)nn1 | 43.3 |
| COc1cc(C2c3cc4c(cc3C(OC3OC5COC(C)OC5C(O)C3O)C3COC(=O)C23)OCO4)cc(OC)c1O (stereo not given) + Nc1ccc(C#CCN(C(=O)Cc2ncc(C(F)(F)F)cc2C(F)(F)F)c2ccc(F)cc2)nn1 | 98 |

###

Listing: viability, T/C of selected molecules
Tested on: 282377-053-R-J1-PDC complex spheroid viability
Assay: Anticancer human tumor 282377-053-R-J1-PDC cell line growth inhibition [POLQ];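 also: spheroids exposed to compounds for seven days; 100% = DMSO vehicle control viability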
Details: second compound 10 µM; first compound 0.1 µM; active compounds read low

| molecule | system_under_test | viability, T/C |
| --- | --- | --- |
| CCCS(=O)(=O)Nc1ccc(F)c(C(=O)c2c[nH]c3ncc(-c4ccc(Cl)cc4)cc23)c1F + Nc1ccc(C#CCN(C(=O)Cc2ncc(C(F)(F)F)cc2C(F)(F)F)c2ccc(F)cc2)nn1 | 282377-053-R-J1-PDC complex spheroid viability | 97.6% |
| CC1COCCN1c1cc(-c2ccnn2C)c2ccnc(-c3ccn[nH]3)c2n1 (stereo not given) + Nc1ccc(C#CCN(C(=O)Cc2ncc(C(F)(F)F)cc2C(F)(F)F)c2ccc(F)cc2)nn1 | 282377-053-R-J1-PDC complex spheroid viability | 84.2% |
| CCc1cc2c(N3CCc4c(cc(Cn5ccnc5)cc4-c4cn(C)nc4C(F)(F)F)C3=O)ccnc2c(OC)n1 + Nc1ccc(C#CCN(C(=O)Cc2ncc(C(F)(F)F)cc2C(F)(F)F)c2ccc(F)cc2)nn1 | 282377-053-R-J1-PDC complex spheroid viability | 106% |
| O=C(c1cc(Cc2n[nH]c(=O)c3ccccc23)ccc1F)N1CCN(C(=O)C2CC2)CC1 + COC1C(OC(N)=O)C(O)C(Oc2ccc3c(O)c(NC(=O)c4ccc(O)c(CC=C(C)C)c4)c(=O)oc3c2C)OC1(C)C | 282377-053-R-J1-PDC complex spheroid viability | 99.4% |
| O=C(c1cc(Cc2n[nH]c(=O)c3ccccc23)ccc1F)N1CCN(C(=O)C2CC2)CC1 + Cc1cccc(N(C)C(=O)C2C(O)CCN2c2nc(C)cc(C(F)(F)F)c2C#N)c1 | 282377-053-R-J1-PDC complex spheroid viability | 110% |

###

Tested on: 282377-053-R-J1-PDC complex spheroid viability
Assay: Anticancer human tumor 282377-053-R-J1-PDC cell line growth inhibition [POLQ];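 also: spheroids exposed to compounds for seven days; 100% = DMSO vehicle control viability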
Settings: second compound 10 µM; first compound 0.1 µM; active compounds read low
Listing: viability, T/C of selected compounds

| compound | system_under_test | viability, T/C |
| --- | --- | --- |
| O=C(Nc1ccc(O)c(NS(=O)(=O)c2ccc(F)cc2)c1)c1ccc(-c2ccccc2)cc1 + Cc1cccc(N(C)C(=O)C2C(O)CCN2c2nc(C)cc(C(F)(F)F)c2C#N)c1 | 282377-053-R-J1-PDC complex spheroid viability | 105% |
| O=c1[nH]cc(F)c(=O)[nH]1 + COC1C(OC(N)=O)C(O)C(Oc2ccc3c(O)c(NC(=O)c4ccc(O)c(CC=C(C)C)c4)c(=O)oc3c2C)OC1(C)C | 282377-053-R-J1-PDC complex spheroid viability | 103% |
| COc1cccc(OCCCN)c1-c1cc(Nc2cnc(C#N)cn2)n[nH]1 + COC1C(OC(N)=O)C(O)C(Oc2ccc3c(O)c(NC(=O)c4ccc(O)c(CC=C(C)C)c4)c(=O)oc3c2C)OC1(C)C | 282377-053-R-J1-PDC complex spheroid viability | 47.4% |
| CNCc1ccc(-c2[nH]c3cc(F)cc4c3c2CCNC4=O)cc1 + COC1C(OC(N)=O)C(O)C(Oc2ccc3c(O)c(NC(=O)c4ccc(O)c(CC=C(C)C)c4)c(=O)oc3c2C)OC1(C)C | 282377-053-R-J1-PDC complex spheroid viability | 122% |
| CC[C@@]1(O)C(=O)OCc2c1cc1n(c2=O)Cc2cc3c(CN(C)C)c(O)ccc3nc2-1 + COC1C(OC(N)=O)C(O)C(Oc2ccc3c(O)c(NC(=O)c4ccc(O)c(CC=C(C)C)c4)c(=O)oc3c2C)OC1(C)C | 282377-053-R-J1-PDC complex spheroid viability | 70.3% |
| COc1cccc2c1C(=O)c1c(O)c3c(c(O)c1C2=O)CC(O)(C(=O)CO)CC3OC1CC(N)C(O)C(C)O1 (stereo unspecified) + Nc1ccc(C#CCN(C(=O)Cc2ncc(C(F)(F)F)cc2C(F)(F)F)c2ccc(F)cc2)nn1 | 282377-053-R-J1-PDC complex spheroid viability | 142% |
| CCc1cc2c(N3CCc4c(cc(Cn5ccnc5)cc4-c4cn(C)nc4C(F)(F)F)C3=O)cc(C)nc2c(OC)n1 + Nc1ccc(C#CCN(C(=O)Cc2ncc(C(F)(F)F)cc2C(F)(F)F)c2ccc(F)cc2)nn1 | 282377-053-R-J1-PDC complex spheroid viability | 102% |
| CC1COCCN1c1cc(C2(S(C)(=N)=O)CC2)nc(-c2ccnc3[nH]ccc23)n1 (stereo unspecified) + Nc1ccc(C#CCN(C(=O)Cc2ncc(C(F)(F)F)cc2C(F)(F)F)c2ccc(F)cc2)nn1 | 282377-053-R-J1-PDC complex spheroid viability | 119% |
| C=CC(=O)N1CCN(c2nc(=O)n(-c3c(C)ccnc3C(C)C)c3nc(-c4c(O)cccc4F)c(F)cc23)C(C)C1 (stereo unspecified) + COC1C(OC(N)=O)C(O)C(Oc2ccc3c(O)c(NC(=O)c4ccc(O)c(CC=C(C)C)c4)c(=O)oc3c2C)OC1(C)C | 282377-053-R-J1-PDC complex spheroid viability | 109% |
| CC[C@@]1(O)C(=O)OCc2c1cc1n(c2=O)Cc2cc3c(CN(C)C)c(O)ccc3nc2-1 + Cc1cccc(N(C)C(=O)C2C(O)CCN2c2nc(C)cc(C(F)(F)F)c2C#N)c1 | 282377-053-R-J1-PDC complex spheroid viability | 65.2% |
| C#Cc1c(F)ccc2cc(O)cc(-c3ncc4c(N5CC6CCC(C5)N6)nc(OCC56CCCN5CC(F)C6)nc4c3F)c12 (stereo unspecified) + Nc1ccc(C#CCN(C(=O)Cc2ncc(C(F)(F)F)cc2C(F)(F)F)c2ccc(F)cc2)nn1 | 282377-053-R-J1-PDC complex spheroid viability | 107% |
| CC1COCCN1c1cc(-c2ccnn2C)c2ccnc(-c3ccn[nH]3)c2n1 (stereo unspecified) + Cc1cccc(N(C)C(=O)C2C(O)CCN2c2nc(C)cc(C(F)(F)F)c2C#N)c1 | 282377-053-R-J1-PDC complex spheroid viability | 71% |
| CNCc1ccc(-c2[nH]c3cc(F)cc4c3c2CCNC4=O)cc1 + Nc1ccc(C#CCN(C(=O)Cc2ncc(C(F)(F)F)cc2C(F)(F)F)c2ccc(F)cc2)nn1 | 282377-053-R-J1-PDC complex spheroid viability | 105% |
| CC1COCCN1c1cc(C2(S(C)(=N)=O)CC2)nc(-c2ccnc3[nH]ccc23)n1 (stereo unspecified) + COC1C(OC(N)=O)C(O)C(Oc2ccc3c(O)c(NC(=O)c4ccc(O)c(CC=C(C)C)c4)c(=O)oc3c2C)OC1(C)C | 282377-053-R-J1-PDC complex spheroid viability | 119% |
| COc1cccc2c1C(=O)c1c(O)c3c(c(O)c1C2=O)CC(O)(C(=O)CO)CC3OC1CC(N)C(O)C(C)O1 (stereo unspecified) + COC1C(OC(N)=O)C(O)C(Oc2ccc3c(O)c(NC(=O)c4ccc(O)c(CC=C(C)C)c4)c(=O)oc3c2C)OC1(C)C | 282377-053-R-J1-PDC complex spheroid viability | 76.8% |
| Cn1ncnc1[C@H]1c2n[nH]c(=O)c3cc(F)cc(c23)N[C@@H]1c1ccc(F)cc1 + Cc1cccc(N(C)C(=O)C2C(O)CCN2c2nc(C)cc(C(F)(F)F)c2C#N)c1 | 282377-053-R-J1-PDC complex spheroid viability | 100% |
| O=C(c1cc(Cc2n[nH]c(=O)c3ccccc23)ccc1F)N1CCN(C(=O)C2CC2)CC1 + Nc1ccc(C#CCN(C(=O)Cc2ncc(C(F)(F)F)cc2C(F)(F)F)c2ccc(F)cc2)nn1 | 282377-053-R-J1-PDC complex spheroid viability | 106% |
| CC(C)n1c(=O)n(C)c2cnc3cc(F)c(-c4ccc(OCCCN5CCCCC5)nc4)cc3c21 + COC1C(OC(N)=O)C(O)C(Oc2ccc3c(O)c(NC(=O)c4ccc(O)c(CC=C(C)C)c4)c(=O)oc3c2C)OC1(C)C | 282377-053-R-J1-PDC complex spheroid viability | 104% |
| COc1cc2cc(C(=O)CCC(=O)O)sc2cc1OC + Cc1cccc(N(C)C(=O)C2C(O)CCN2c2nc(C)cc(C(F)(F)F)c2C#N)c1 | 282377-053-R-J1-PDC complex spheroid viability | 112% |
| C=CC(=O)N1CCN(c2nc(=O)n(-c3c(C)ccnc3C(C)C)c3nc(-c4c(O)cccc4F)c(F)cc23)C(C)C1 (stereo unspecified) + Nc1ccc(C#CCN(C(=O)Cc2ncc(C(F)(F)F)cc2C(F)(F)F)c2ccc(F)cc2)nn1 | 282377-053-R-J1-PDC complex spheroid viability | 107% |
| Nc1ccn(C2OC(CO)C(O)C2(F)F)c(=O)n1 (stereo unspecified) + Cc1cccc(N(C)C(=O)C2C(O)CCN2c2nc(C)cc(C(F)(F)F)c2C#N)c1 | 282377-053-R-J1-PDC complex spheroid viability | 48.6% |
